Each recorded value in this set is attributed to ChEMBL document CHEMBL1131962.

target: D(2) dopamine receptor (Homo sapiens, UniProt P14416); experiment: Binding ability of compound to human Dopamine receptor D2
Sequence (P14416 whole entry): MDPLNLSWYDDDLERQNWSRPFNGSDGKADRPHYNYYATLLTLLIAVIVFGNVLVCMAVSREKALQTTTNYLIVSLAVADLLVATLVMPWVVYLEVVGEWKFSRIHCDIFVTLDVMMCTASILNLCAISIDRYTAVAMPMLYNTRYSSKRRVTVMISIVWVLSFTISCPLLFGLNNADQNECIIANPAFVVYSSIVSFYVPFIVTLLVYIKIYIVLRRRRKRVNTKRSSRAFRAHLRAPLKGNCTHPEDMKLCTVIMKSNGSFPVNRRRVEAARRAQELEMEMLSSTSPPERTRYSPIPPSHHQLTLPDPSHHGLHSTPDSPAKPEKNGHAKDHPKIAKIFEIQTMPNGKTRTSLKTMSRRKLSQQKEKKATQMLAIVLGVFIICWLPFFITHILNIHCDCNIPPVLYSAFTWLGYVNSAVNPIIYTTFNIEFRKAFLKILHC
recordedMetric: pKi
pKi here is simply -log10 of the concentration when that concentration is written in mol/L.

Challenge: Please give the measured pKi for this compound: `Nc1cccc(-c2ccc(CCN3CCN(c4cccc5cccnc45)CC3)cc2)n1`
Response given: 7.96

====

assay: Half life in rats; format: ADME, organism-based; conditions: rat, in vivo
recordedMetric: half-life (h)
Expressed in h, but write only the number.

Challenge: Please give the measured half-life for this compound: `Nc1cccc(-c2ccc(CCN3CCN(CC(=O)c4ccccc4)CC3)cc2)n1`
Response given: 3.6
